- Tested on: SK-OV-3 ovarian
- experiment: NCI tumour cell line growth inhibition, 48 h
# TGI listing for each entry below

Solved entries:
# return TGI of Cn1c(I)c(C#C[Si](C)(C)C)c(=O)[nH]c1=O (system: SK-OV-3 ovarian)
30.9 µM

# return TGI of COC(=O)C1(Cc2ccccc2)Cc2cc3c(cc2C1O)CCC3 (stereo not drawn) (system: SK-OV-3 ovarian)
36 µM

# return TGI of COc1ccccc1C(=O)OCC1CCCN2CCCCC12 (stereo not drawn) (system: SK-OV-3 ovarian)
> 100 µM

# return TGI of CCC(Nc1ncnc2nc[nH]c12)C(=O)O (stereo not drawn) (system: SK-OV-3 ovarian)
> 100 µM

# return TGI of COC(=O)C(=O)C(C(=O)OC)C(=O)C(=O)Nc1c(Cl)cc([N+](=O)[O-])cc1Cl (stereo not drawn) (system: SK-OV-3 ovarian)
> 100 µM

Continuing:
# return TGI of C=CCOC(=O)Cn1ccc(=O)[nH]c1=O (system: SK-OV-3 ovarian)
> 100 µM

# return TGI of CSc1nc(NCc2ccccc2)c2cnn(COCCO)c2n1 (system: SK-OV-3 ovarian)
> 100 µM

# return TGI of COc1cc(S(=O)(=O)Nc2ccc(-c3csc(N4C(=O)CSC4c4ccccc4O)n3)cc2)ccc1Cl (stereo not drawn) (system: SK-OV-3 ovarian)
> 100 µM

# return TGI of COc1cc(C(=O)n2nc(N)c3c(C)cc(C)nc32)cc(OC)c1OC (system: SK-OV-3 ovarian)
> 100 µM

# return TGI of CSc1nnc(C(C#N)C#N)nn1 (system: SK-OV-3 ovarian)
> 100 µM

# return TGI of O=c1[nH]c(=O)n(C2CC(O)C(CO)O2)cc1Br (stereo not drawn) (system: SK-OV-3 ovarian)
> 100 µM

# return TGI of CSc1nc2c(c(=O)n1C)C(c1ccccc1)C1=C(N2)/C(=C/c2ccccc2)CCC1 (stereo not drawn) (system: SK-OV-3 ovarian)
78.7 µM

# return TGI of N#CC1=C(N)OC2=C(CCOc3c2ccc2ccccc32)C1c1ccc(Br)cc1 (stereo not drawn) (system: SK-OV-3 ovarian)
> 100 µM

# return TGI of COc1ccc2[nH]c3c(c2c1)CC(=O)N1CCC[C@H](C1)CC31OCCCO1 (system: SK-OV-3 ovarian)
> 100 µM

# return TGI of CNC(=O)CNC(=O)N(C[C@@H]1CCCN1C(=O)[C@H](CC(C)C)NC(=O)OC(C)(C)C)C(C)C (system: SK-OV-3 ovarian)
> 100 µM

# return TGI of COc1ccc(/C=C/c2ccnc3ccccc23)cc1OC (system: SK-OV-3 ovarian)
92.8 µM

###

- Tested on: OVCAR-4 ovarian
- experiment: NCI tumour cell line growth inhibition, 48 h
reported.metric: TGI

Solved entries:
Look up TGI of CC1=C2C=CC(=O)C[C@@]2(C)CCC1 and report it.
> 100 µM

Look up TGI of COc1cc(O)c(Cc2ccccc2O)c(O)c1C(=O)CCc1ccccc1 and report it.
18.5 µM

Look up TGI of NC1=Nc2ccccc2Sc2cccc(F)c21 and report it.
> 100 µM

Look up TGI of O=c1[nH]c(=O)n(C2CC(O)C(CO)O2)cc1Br (configuration not stated) and report it.
> 100 µM

Look up TGI of CC1CN(CCO)CCN1c1ccccc1 (configuration not stated) and report it.
> 100 µM

Look up TGI of Cc1ccc(S(=O)(=O)NNS(C)(=O)=O)cc1 and report it.
> 100 µM

Look up TGI of CCC(c1ccccc1)c1cc(C(C)(C)C)cc(C(C)(C)C)c1O (configuration not stated) and report it.
29.3 µM

Look up TGI of O=C(N/C(=C\c1ccc(/C=C(\NC(=O)c2ccccc2)c2nc3c(O)nc(S)nc3[nH]2)cc1)c1nc2c(O)nc(S)nc2[nH]1)c1ccccc1 and report it.
> 100 µM

Look up TGI of NC(=O)/N=C/c1c(O)c2ccccc2oc1=O and report it.
> 100 µM

Look up TGI of CSc1nc(SC)c2c(C)cn(COCCOC(=O)c3ccccc3)c2n1 and report it.
> 100 µM

Continuing:
Look up TGI of CCO/C(O)=c1/s/c(=C(\C#N)c2nc3ccccc3[nH]2)n(-c2ccccc2)c1=N and report it.
> 100 µM

Look up TGI of C=CCSC(C)=O and report it.
> 100 µM

###

- Test system: BT-549 breast
- experiment: NCI tumour cell line growth inhibition, 48 h
reported.metric: TGI

Look up TGI of CC(=O)NC(C)(C)C1CCC(C)CC1 (stereo not given) and report it.
> 100 µM

Look up TGI of O=c1/c(=C/c2ccccn2)sc2nc3cc4c(cc3n12)OCCO4 and report it.
> 100 µM

Look up TGI of NC(=S)N1N=C2c3ccccc3CCC[C@H]2[C@@H]1c1ccccc1 and report it.
19.7 µM

Look up TGI of COC(=O)c1ccccc1C1CN=NC12Cc1ccc3c(c1C2=O)CCC3 (stereo not given) and report it.
> 100 µM

Look up TGI of C(=N\NC1=NCCN1)/c1ccc2ccccc2c1 and report it.
25.3 µM

Continuing:
Look up TGI of COc1cc(/C=C/C(=N\NC(N)=S)c2sc(NNC(C)=O)nc2C)ccc1O and report it.
> 100 µM

###

- System: DU-145 prostate
- experiment: NCI tumour cell line growth inhibition, 48 h
# GI50 listing for each entry below

Solved entries:
Look up GI50 of CCCCCCCCN=C(NCCCCCCCC)SCc1cccc2ccccc12 and report it.
1800 nM

Look up GI50 of Cc1cc(N2CCOCC2)nc(NCc2cc(Nc3ccnc4cc(Cl)ccc34)ccc2F)n1 and report it.
1600 nM

// next item, GI50 requested
Look up GI50 of CSc1nc2c(c(=O)n1C)C(c1ccccc1)C1=C(N2)/C(=C/c2ccccc2)CCC1 (stereo not drawn) and report it.
8020 nM

###

- System: HT29 colon
- experiment: NCI tumour cell line growth inhibition, 48 h
reported.metric: TGI

Solved entries:
# return TGI of Fc1ccc(Nc2nc(Nc3ccc(-c4nc5ccccc5[nH]4)cc3)c3cn[nH]c3n2)cc1 (system: HT29 colon)
4 µM

# return TGI of CC1=C2C=CC(=O)C[C@@]2(C)CCC1 (system: HT29 colon)
> 100 µM

# return TGI of COc1ccc2nc3ccccc3c(NCCCCN(CCCl)CCCl)c2c1 (system: HT29 colon)
> 100 µM

# return TGI of NC(=S)N1N=C2c3ccccc3CCC[C@H]2[C@@H]1c1ccccc1 (system: HT29 colon)
6.18 µM

Continuing:
# return TGI of N#CC1=C(N)OC2=C(CCOc3c2ccc2ccccc32)C1c1ccc(Br)cc1 (stereo unspecified) (system: HT29 colon)
> 100 µM

# return TGI of O=C(Oc1c(Cl)cc(Cl)cc1Cl)c1ccccc1Nc1ccnc(C(F)(F)F)c1 (system: HT29 colon)
> 100 µM

###

- Tested on: KM12 colon
- experiment: NCI tumour cell line growth inhibition, 48 h
reported.metric: GI50

Solved entries:
Look up GI50 of O=C1/C(=C/c2ccc([N+](=O)[O-])o2)Oc2ccc(Cl)cc21 and report it.
1.88 µM

Look up GI50 of COc1ccc([I+]c2ccc(OC)cc2)cc1 and report it.
6.63 µM

Look up GI50 of O=C(C(=CN1CCN(C(=O)c2ccco2)C1=S)C(=O)c1ccccc1)c1ccccc1 and report it.
2.31 µM

Look up GI50 of CCCCCCCCN=C(NCCCCCCCC)SCc1cccc2ccccc12 and report it.
1.68 µM

Look up GI50 of CC(=O)[CH-]C(=O)c1ccccc1.CC(=O)[CH-]C(=O)c1ccccc1.CC(=O)[CH-]C(=O)c1ccccc1.[Ga+3] and report it.
16.8 µM

Look up GI50 of CCc1c(C)c2cc(-n3c(-c4ccc(OC)cc4)csc3=N)c(O)c(C)c2oc1=O and report it.
1.32 µM

Look up GI50 of N#Cc1c(N)nc(N2CCOCC2)c(C#N)c1-c1c(Cl)cccc1Cl and report it.
6.42 µM

Look up GI50 of N#CC1=C(N)OC2=C(CCOc3c2ccc2ccccc32)C1c1ccc(Br)cc1 (stereo not given) and report it.
14.6 µM

Look up GI50 of COc1cc(C2NC(=O)C(C#N)=C(Nc3cccc(C)c3)S2)ccc1O (stereo not given) and report it.
> 100 µM

Continuing:
Look up GI50 of O=C1C(=C([O-])c2ccccc2)C(=O)c2ccccc21.O=C1C(=C([O-])c2ccccc2)C(=O)c2ccccc21.[Ni+2] and report it.
84.6 µM

###

- Tested on: A549 NSCLC
- experiment: NCI tumour cell line growth inhibition, 48 h; in the data active = GI50 below about 0.43 µM; inactive = the rest
API: response.call in y (active), n (inactive)

# fetch the recorded call for COc1ccc2c3/c(=C\c4ccc(N(C)C)cc4)c4ccccc4n3[n+](C)c2c1 here
y

# fetch the recorded call for COc1cc(C2NC(=O)C(C#N)=C(Nc3cccc(C)c3)S2)ccc1O (stereo unspecified) here
n

# fetch the recorded call for CN1CCN(c2ccc(NC3=CC(=O)c4ncncc4C3=O)cc2)CC1 here
y

# fetch the recorded call for COC(=O)c1cc(-c2ccc(S(C)(=O)=O)cc2)[nH]c1N/N=C/c1c(Cl)cccc1Cl here
n

# fetch the recorded call for COc1ccc(-c2[nH]ncc2Nc2cc(OC)c(OC)c(OC)c2)cc1 here
n

Continuing:
# fetch the recorded call for CCCCCCCCN=C(NCCCCCCCC)SCc1cccc2ccccc12 here
n

# fetch the recorded call for COC(=O)CC1=C(C)/C(=C/c2[nH]c(-c3ccc[nH]3)cc2OC)N=C1C here
y

# fetch the recorded call for N#Cc1c(N)nc(N2CCOCC2)c(C#N)c1-c1c(Cl)cccc1Cl here
n

# fetch the recorded call for CC(=O)c1c(C)c2cnc(Nc3ccc(N4CCNCC4)cn3)nc2n(C2CCCC2)c1=O here
n

# fetch the recorded call for COc1ccc(-c2c(-c3ccc(C#N)c(F)c3)nc(N3CCC(N)CC3)n(C)c2=O)cc1F here
n
